Recorded kon, one value per entry.
Biological target: T1, human CD137-His6 (Sino Biological #10041-H08H) (human, UniProt Q07011 24-186)
T1 construct: Bought; also called human CD137 protein; not shown: His6 tag
Test: SPR Biacore, IgG
Your answer is read as M⁻¹ s⁻¹, so omit the unit and give the number.

Study these solved cases before continuing.
INSERT INTO assay_data (binder, numeric_readout) VALUES
  ('AG10063 (antibody, human IgG4 S228P, kappa, V domains shown, also called IgG of Fab 5413) VH: EVQLVESGGGLVQPGGSLRLSCAASGFSLSTGGVAVGWIRQAPGKGLEWLALIDWDGDKSYSTSLKSRLTISRDNSKNTLYLQLNSLRAEDTAVYYCAREGSTAVVGDWFDYWGQGTLVTVSS VL: DIQLTQSPSSLSASVGDRVTITCRASQGISRYLAWYQQKPGKAPKLLIYDASNRATGIPSRFSGSGSGTDFTLTISSLQPEDFATYYCQQGYSLWTFGQGTKVEIKR', 390000),
  ('AG10079 (antibody, human IgG4 S228P, kappa, V domains shown, also called IgG of Fab 4074) VH: EVQLVESGGGLVQPGGSLRLSCAASGFSLSTGGVGVSWIRQAPGKGLEWVSSISGSGGTTYYADSVKGRFTISRDNSKNTLYLQLNSLRAEDTAVYYCARDDLYSWYFDVWGQGTLVTVSS VL: DIQLTQSPSSLSASVGDRVTITCRASQGIGSSLAWYQQKPGKAPKLLIYAASSLQSGVPSRFSGSGSGTDFTLTISSLQPEDFATYYCQQGYYTWTFGQGTKVEIKR', 190000),
  ('AG10057 (antibody, human IgG4 S228P, kappa, V domains shown, also called IgG of Fab 5303) VH: EVQLVESGGGLVQPGGSLRLSCAASGFSLSTSGVAVGWIRQAPGKGLEWLALIDWADDKYYSPSLKSRLTISRDNSKNTLYLQLNSLRAEDTAVYYCAREGSDAVLGDWFAYWGQGTLVTVSS VL: DIQLTQSPSSLSASVGDRVTITCRASQDISTFLAWYQQKPGKAPKLLIYDASSLESGVPSRFSGSGSGTDFTLTISSLQPEDFATYYCQQAYSIWTFGQGTKVEIKR', 770000);

Let us examine a further case.
Looking up AG10059 (antibody, human IgG4 S228P, kappa, V domains shown) VH: EVQLVESGGGLVQPGGSLRLSCAASGYSITSGHYWAWIRQAPGKGLEWVSSISGYGSTTYYADSVKGRFTISRDNSKNTLYLQLNSLRAEDTAVYYCARGGSDAVLGDWFAYWGQGTLVTVSS VL: DIQLTQSPSSLSASVGDRVTITCRASQGIGSFLAWYQQKPGKAPKLLIYDASNLETGVPSRFSGSGSGTDFTLTISSLQPEDFATYYCQQGYYLWTFGQGTKVEIKR , I found its kon recorded as 160000
